test system: Pseudomonas aeruginosa; assay: Selectivity index, ratio of MIC for against IMP-4 producing Pseudomonas aeruginosa isolate 208247 to MIC for against IMP-4 producing Pseudomonas aeruginosa isolate 208247 in presence of BPL; assay type: functional
readout name: Selectivity Index
Form rule: numeric answer, no unit written next to it.

Incoming: Name the recorded Selectivity Index for CC(C)C(O/N=C(\C(=O)N[C@@H]1C(=O)N(S(=O)(=O)O)[C@@H]1COS(=O)(=O)O)c1csc(N)n1)c1cc(=O)c(O)cn1O (some centres not stated) .
Outgoing: 1

Incoming: Name the recorded Selectivity Index for CC(C)C(O/N=C(\C(=O)N[C@@H]1C(=O)N(S(=O)(=O)O)[C@@H]1CCl)c1csc(N)n1)c1cc(=O)c(O)cn1O (some centres not stated) .
Outgoing: 1

Incoming: Name the recorded Selectivity Index for CC(C)C(O/N=C(\C(=O)NC1C(=O)N(S(=O)(=O)O)C12CCCC2)c1csc(N)n1)c1cc(=O)c(O)cn1O (configuration not stated) .
Outgoing: 2

Incoming: Name the recorded Selectivity Index for CC(C)C(O/N=C(\C(=O)NC1C(=O)N(S(=O)(=O)O)C12CCC2)c1csc(N)n1)c1cc(=O)c(O)cn1O (configuration not stated) .
Outgoing: 1

Incoming: Name the recorded Selectivity Index for Cc1csc(SC[C@@H]2[C@H](NC(=O)/C(=N\OC(c3cc(=O)c(O)cn3O)C(C)C)c3csc(N)n3)C(=O)N2S(=O)(=O)O)n1 (some centres not stated) .
Outgoing: 1

###

test system: Klebsiella pneumoniae; assay: Antibacterial activity against KPC-2 producing Klebsiella pneumoniae isolate 209632 after 18 hrs by CLSI broth microdilution method; type: functional; conditions: isolate 209632, 18 h
So basically, if MIC comes in under 4 µg/mL it's 1, and if it's 4 µg/mL or more it's 0.

{"compound": "CC(C)C(O/N=C(\\C(=O)NC1C(=O)N(S(=O)(=O)O)C12CCCC2)c1csc(N)n1)c1cc(=O)c(O)cn1O (centres undefined)", "qualitative label": 0}

Incoming: Report whether reported MIC is lower than 4 µg/mL (strictly) for C#CC1[C@H](NC(=O)/C(=N\OC(c2cc(=O)c(O)cn2O)C(C)C)c2csc(N)n2)C(=O)N1S(=O)(=O)O (some centres undefined)
Outgoing: 0

Incoming: Report whether reported MIC is lower than 4 µg/mL (strictly) for CC(C)C(O/N=C(\C(=O)N[C@@H]1C(=O)N(S(=O)(=O)O)[C@@H]1CO)c1csc(N)n1)c1cc(=O)c(O)cn1O (some centres undefined)
Outgoing: 0

Incoming: Report whether reported MIC is lower than 4 µg/mL (strictly) for CC(C)C(O/N=C(\C(=O)N[C@@H]1C(=O)N(S(=O)(=O)O)[C@@H]1COC(=O)c1ccc(O)c(O)c1Cl)c1csc(N)n1)c1cc(=O)c(O)cn1O (some centres undefined)
Outgoing: 0

Incoming: Report whether reported MIC is lower than 4 µg/mL (strictly) for CC(C)C(O/N=C(\C(=O)NC1C(=O)N(S(=O)(=O)O)C1(CF)CF)c1csc(N)n1)c1cc(=O)c(O)cn1O (centres undefined)
Outgoing: 0

Incoming: Report whether reported MIC is lower than 4 µg/mL (strictly) for Cc1nnc(SC[C@@H]2[C@H](NC(=O)/C(=N\OC(c3cc(=O)c(O)cn3O)C(C)C)c3csc(N)n3)C(=O)N2S(=O)(=O)O)s1 (some centres undefined)
Outgoing: 1

Incoming: Report whether reported MIC is lower than 4 µg/mL (strictly) for CC(C)C(O/N=C(\C(=O)N[C@@H]1C(=O)N(S(=O)(=O)O)C12CCCC2)c1csc(N)n1)c1cc(=O)c(O)cn1O (some centres undefined)
Outgoing: 1
